Data origin, for the record: the supplement of paper PMC6555819

# System: RXRa homodimer (NR concentration 180 nM)
# Assay text: PBM binding z-score (relative to random genomic background probes); higher = stronger binding; sequences stand for … in GC…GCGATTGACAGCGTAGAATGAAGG
PBM binding z-score of 1 or higher: condition met. Under 1: condition not met.

>>> cat("CAAACTAGGTCACGTAAGGTCAAAGTCGAATGAC")
"condition met"
>>> cat("CGAACTCGGTCATTGACAGGACAGTGAATAGTAA")
"condition not met"
>>> cat("CGAATTAGGTCATCCAGGACAGTGAATACATTGA")
"condition met"
>>> cat("CCTTATGGGTCACTGACAGGTTATAGCATTTGGA")
"condition met"
>>> cat("ATCGGAAGGTCGAAGGTGAGTATACCCACCCGAA")
"condition met"
>>> cat("TGAATGAGGTTATAAGATCAGGGGACGTTGCAAA")
"condition met"
>>> cat("GTTAGCAGGCCATTTGGGTCACTCAATGACGGGC")
"condition not met"
>>> cat("GAAACAGGGTCAGCTAGAGGCCAGAGTATGGAAA")
"condition met"
>>> cat("CCTAGCAGGCCAGGGTCAATCAAGCATTTCGCTT")
"condition met"
>>> cat("TCGATTAGGTTACCAATGGGGCATTCAGCTTTCT")
"condition not met"
>>> cat("TCTTGTAGATCAATGGTTAAGAAAGCCGAAGCCT")
"condition not met"
>>> cat("CCAGACAGGTGAACGGTAACTCAGTCTGGTACGC")
"condition not met"
>>> cat("TCTTGTAGATCAAGCAGGTTAAGACAGCCTGAGT")
"condition not met"
>>> cat("CGGCCTAGGTCAGGGCCAGTATAGGAGGAACGTT")
"condition met"
>>> cat("GCTATTAGTTGAAAGGGCAACCGCATGATTCTCG")
"condition met"
>>> cat("TCTTGTAGATCAAAAGTTAAGAAAGCCGAAGCCT")
"condition not met"
>>> cat("TCATATAGGTAAATGCTAGGTTAAAGTCCGATCT")
"condition not met"
>>> cat("ATCTCTAGGTAAAAGTTCAGTGCATCCCGAGGAT")
"condition met"
>>> cat("TCTTGTAGATCAACAGGAGGTTATGAAAGATCGA")
"condition not met"
>>> cat("CCGACTGGGGCATACGGTTACCATAAGCCAGCCC")
"condition not met"
>>> cat("ACATGTAGGTTATCGGGTCATTCAGTTTGCGCAT")
"condition met"
>>> cat("ACTATTAGTTAACTTAGGGCAACCGATACGACGC")
"condition not met"
>>> cat("CCTTACGGCTCACTGACAGGTTATAGCATTTGGA")
"condition not met"
>>> cat("TTTCGGAGGACACGAAGGTCAGAGCTTTCCAGAG")
"condition met"
>>> cat("CGTCCAAGGACATAGGAGGTCAGTGAAGACAGAT")
"condition met"

====

# Test system: THRa homodimer (NR concentration 90 nM)
# Assay text: PBM binding z-score (relative to random genomic background probes); higher = stronger binding; sequences stand for … in GC…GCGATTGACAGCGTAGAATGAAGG
Quantity kind: PBM binding z-score

>>> observed_measurement("GCTAGTTGGTCAGTAAAAGGTCACAAACCGGTCG")
1.15
>>> observed_measurement("TCATGTAGGTAATACAGGTGAAAGTCGGCATCTA")
-0.119
>>> observed_measurement("CCTAACGGGTCAAGGTTATAGCACGGGTGGTACG")
0.625
>>> observed_measurement("ACTATTAGTTGAGACGAGGGCAAGCGATAGGTTG")
0.357
>>> observed_measurement("ACTATTAGTTGACTTAGGTCAACCGATACGACGC")
2.98
>>> observed_measurement("ATCTCAAGGTAAAAGTTCAGTGAATCCCGAGGAT")
0.529

====

# Test system: LXRb:RXRa (NR concentration 270 nM, RXRa partner concentration 90 nM)
# Assay text: PBM binding z-score (relative to random genomic background probes); higher = stronger binding; sequences stand for … in GC…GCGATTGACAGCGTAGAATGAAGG
Quantity kind: PBM binding z-score

>>> observed_measurement("ACAGACAGGTGAGTGAAGCTAACTCAGCTGGACG")
-0.865
>>> observed_measurement("TCATATAGGTAAAAGGGGAAAGTCGGTGTGGTAA")
1.32
>>> observed_measurement("CGAACTAGGTCATCCAGCACAGTGAATACATTGA")
2.07
>>> observed_measurement("ACCGAAAGGTCGAAGGTGAGTATACCCACCCGAA")
2.87
>>> observed_measurement("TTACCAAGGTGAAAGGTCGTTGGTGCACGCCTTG")
2.87
>>> observed_measurement("CGAACTAGGTCAAGGACAGCGAATCTCCGCACGC")
1.27
>>> observed_measurement("AGTCAAAGTACATCTAGGTAACGTAAGATATGCT")
-0.0982
>>> observed_measurement("GCTATTGGTTGAAAGGGCAACCGAATGATTCTCG")
0.954
>>> observed_measurement("CAAATTAGGTCAAAGGTCAAAGTCGAGCCAACCA")
7.29
>>> observed_measurement("CCTCCTAGGTCATGGTCAGCTAATCTACAGTATG")
2.24
>>> observed_measurement("TCCTATAGGTAAATGCTAGGTGAAAGTCCGATCT")
0.379
>>> observed_measurement("ATCTCTAGGTAAAGATAGTTCAGTGCATGCAAAT")
0.899

====

# Test system: PPARg:RXRa 30nM:10nM, anti-RXR (NR concentration 30 nM, RXRa partner concentration 10 nM)
# Assay text: PBM binding z-score (relative to random genomic background probes); higher = stronger binding; sequences stand for … in GC…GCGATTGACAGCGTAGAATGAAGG
Quantity kind: PBM binding z-score

>>> observed_measurement("ATCGAAAGGTCGAAGGTAAGTATACCCACCCGAA")
1.59
>>> observed_measurement("TCTATTAGTTGAAGGGCAAACGACGAGTCCGTTT")
3.63
>>> observed_measurement("CCTGCTGGGCCAAAAAGGTCATTGATGCCGATAA")
0.205
>>> observed_measurement("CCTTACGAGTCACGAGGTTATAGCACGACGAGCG")
-0.27
>>> observed_measurement("ATCGAAAGGTCGACGAGGGGAGTATACACCGTTT")
0.952
>>> observed_measurement("CGAAATAGGTCAAGGACAGTGAATCTCCGCACGC")
4.2
>>> observed_measurement("TGTCACAGTTCAAAGGTAACGTAAGTATCCACAC")
1.68
>>> observed_measurement("ATCGAAAGGACGAGGTGAGTATAGAGAAAGGGAA")
0.508
>>> observed_measurement("TCGAGTAGGTTGGTCGGGGCATTCAGCCAACATA")
0.981
>>> observed_measurement("AGTCAAAGTTCAGGACGAGCTAACGTAAAGCACG")
2.01
>>> observed_measurement("TCAGATAGGTAAATGCTAGGTGAAAGTCCGATCT")
3.59
>>> observed_measurement("ACCATTAGTTGACTTAGGGCAACCGATACGACGC")
0.182
>>> observed_measurement("ATATGTAGGTTATCGGGTCATTGAGTTTGCGCAT")
3.44
>>> observed_measurement("ATATGTAGGTTACAGCCGGGTCATTCAGGCTATG")
2.52
>>> observed_measurement("GATACAGTGTCAAGGCCAGAGTACGCGTATTGAT")
-0.172
>>> observed_measurement("CAAACTATGTCACAGAGGTCAAAGTCCGTGCGTA")
3.36
>>> observed_measurement("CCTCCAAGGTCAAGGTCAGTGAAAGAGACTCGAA")
2.76
>>> observed_measurement("CAGCCTAGGTCAGGTCCAGTATAGGAGGAACGTT")
-0.0378
>>> observed_measurement("ATCTCTAGGTAAAGGTTCAGTGAATCCCGAGGAT")
3.95
>>> observed_measurement("CGTCCCAGGTCAAGGTCAGTGAAAGAGACTCGAA")
1.14
>>> observed_measurement("ATATGTAGGTTAAGGGTCATTGAGGTTGGTTCGC")
10.5
>>> observed_measurement("ATCTCTACGTAAAGTTCAGTGAAAGATCGATAGA")
1.02
>>> observed_measurement("CGTCAAAGTTCAACTTAGGTAACGTAAAGCACGC")
2.4
>>> observed_measurement("ATCTCTAAGTAACCAAGTTCAGTGAATGCCGAAC")
0.371
>>> observed_measurement("ATCGCTAGGTAAAGATAGTTCAGTGAATGCAAAT")
-0.376
>>> observed_measurement("TAGCCTAGGTCAGATCGGGCCAGTACACGCTATA")
-0.169

====

# Tested on: RARa homodimer (NR concentration 270 nM)
# Assay text: PBM binding z-score (relative to random genomic background probes); higher = stronger binding; sequences stand for … in GC…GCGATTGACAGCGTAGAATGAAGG
# Lookup of reported PBM binding z-score keyed by entry
Quantity kind: PBM binding z-score

>>> observed_measurement("TCGAGTAGGTAAGGGGCATTCAGAATGGCGTCGA")
-0.369
>>> observed_measurement("ATCTCTCGGTAAAAGTTCAGTGAATCCCGAGGAT")
0.811
>>> observed_measurement("TAGAGTAGGTTAGGGGCATTCAGAATGGCGTCGA")
1.66
>>> observed_measurement("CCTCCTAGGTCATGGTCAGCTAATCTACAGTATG")
1.05
>>> observed_measurement("CGAACTAGGTCACGAAAGGTCAAAGTCGAATGAC")
2.82
>>> observed_measurement("ATTACAGGGTCACTAGGCCAGAGTAGGTACGAAT")
1.19
